System: Hepatotoxicity
Settings: Liver
The molecules listed here are annotated with their HepSE_hepatitis.
assay.metric: HepSE_hepatitis

- molecule: "CC1(C)NC(=O)N(c2ccc([N+](=O)[O-])c(C(F)(F)F)c2)C1=O [NILUTAMIDE]"
  tgt: "Hepatotoxicity"
  test.result: 1
- molecule: "CC(C)c1c(C(=O)Nc2ccccc2)c(-c2ccccc2)c(-c2ccc(F)cc2)n1CC[C@@H](O)C[C@@H](O)CC(=O)O [ATORVASTATIN]"
  tgt: "Hepatotoxicity"
  test.result: 1
- molecule: "NC(N)=Nc1nc(CSCCC(N)=NS(N)(=O)=O)cs1 [FAMOTIDINE]"
  tgt: "Hepatotoxicity"
  test.result: 0
- molecule: "CC1=C(/C=C/C(C)=C/C=C/C(C)=C/CO)C(C)(C)CCC1 [RETINOL]"
  tgt: "Hepatotoxicity"
  test.result: 0
- molecule: "C#CCN[C@@H]1CCc2ccccc21 [RASAGILINE]"
  tgt: "Hepatotoxicity"
  test.result: 0

====

The following are reported HepSE_Combined Scores results, target or system Hepatotoxicity.

- molecule: "CCN1CC(CCN2CCOCC2)C(c2ccccc2)(c2ccccc2)C1=O (stereo not drawn)"
  HepSE_Combined Scores: 0
- molecule: "Nc1nc(NC2CC2)c2ncn([C@H]3C=C[C@@H](CO)C3)c2n1"
  HepSE_Combined Scores: 3
- molecule: "CCC(=O)O[C@]1(C(=O)CCl)[C@@H](C)C[C@H]2[C@@H]3C[C@H](F)C4=CC(=O)C=C[C@]4(C)[C@@]3(F)[C@@H](O)C[C@@]21C [HALOBETASOL PROPIONATE]"
  HepSE_Combined Scores: 0
- molecule: "CO/N=C1\\CN(c2nc3c(cc2F)c(=O)c(C(=O)O)cn3C2CC2)CC1CN (stereo not drawn)"
  HepSE_Combined Scores: 3
- molecule: "C[C@@H](O)C(=O)O"
  HepSE_Combined Scores: 0
- molecule: "C[C@@H]1C[C@H]2[C@@H]3CCC4=CC(=O)C=C[C@]4(C)[C@@]3(Cl)[C@@H](O)C[C@]2(C)[C@@]1(O)C(=O)CCl"
  HepSE_Combined Scores: 0
- molecule: "CNC1(C)C2CCC(C2)C1(C)C (stereo not drawn)"
  HepSE_Combined Scores: 0
- molecule: "CC(N)C12CC3CC(CC(C3)C1)C2 (stereo not drawn)"
  HepSE_Combined Scores: 0
- molecule: "Nc1nc(=O)[nH]cc1F"
  HepSE_Combined Scores: 1
- molecule: "C[C@]12C=CC(=O)N[C@@H]1CC[C@@H]1[C@@H]2CC[C@]2(C)[C@@H](C(=O)Nc3cc(C(F)(F)F)ccc3C(F)(F)F)CC[C@@H]12 [DUTASTERIDE]"
  HepSE_Combined Scores: 0
- molecule: "CCN(C(C)=O)c1cccc(-c2ccnc3c(C#N)cnn23)c1"
  HepSE_Combined Scores: 3
- molecule: "CC(C)(C)NC[C@H](O)COc1ccccc1C1CCCC1"
  HepSE_Combined Scores: 0
- molecule: "O=C1CN2Cc3c(ccc(Cl)c3Cl)N=C2N1 [ANAGRELIDE]"
  HepSE_Combined Scores: 1
- molecule: "FCOC(C(F)(F)F)C(F)(F)F"
  HepSE_Combined Scores: 5
- molecule: "CC1=NS(=O)(=O)c2cc(Cl)ccc2N1 [DIAZOXIDE]"
  HepSE_Combined Scores: 0
- molecule: "CCCCCCC(C)(C)c1cc(O)c2c(c1)OC(C)(C)C1CCC(=O)CC21 (stereo not drawn)"
  HepSE_Combined Scores: 0
- molecule: "COc1ccc2c(c1)c(CC(=O)O)c(C)n2C(=O)c1ccc(Cl)cc1"
  HepSE_Combined Scores: 1
- molecule: "CN(C)CCCN1c2ccccc2CCc2ccc(Cl)cc21"
  HepSE_Combined Scores: 1
- molecule: "CCC[C@@H]1C[C@@H](C(=O)N[C@@H]([C@H]2O[C@H](SC)[C@H](O)[C@@H](O)[C@H]2O)[C@H](C)Cl)N(C)C1"
  HepSE_Combined Scores: 1
- molecule: "COc1cc(C(=O)NS(=O)(=O)c2ccccc2C)ccc1Cc1cn(C)c2ccc(NC(=O)OC3CCCC3)cc12"
  HepSE_Combined Scores: 4
- molecule: "CC(N)Cc1ccccc1 (stereo not drawn)"
  HepSE_Combined Scores: 0
- molecule: "CC1CNc2c(cccc2S(=O)(=O)N[C@@H](CCCNC(=N)N)C(=O)N2CC[C@@H](C)C[C@@H]2C(=O)O)C1 (stereo partly drawn)"
  HepSE_Combined Scores: 0
- molecule: "N[C@@H](Cc1cc(I)c(Oc2ccc(O)c(I)c2)c(I)c1)C(=O)O"
  HepSE_Combined Scores: 0
